Entries and their growth inhibition values follow.
# test description: NCI Yeast Anticancer Drug Screen. Data for the rad50 strain (AID 155);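 further: 0% = growth of vehicle-only cultures of the same strain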
# condition parameters: S. cerevisiae rad50 strain growth inhibition; at 50.0 µM; active compounds read high
About 79,000 compounds went through this panel and 15% of them were active in at least one assay; those are over-represented in the sample as a whole.
Kindly answer with a numeric value in %, unit omitted.

Completed entries (count: 2):
INSERT INTO results (molecule, reported_value) VALUES
  ('CCCCCCC(=O)OC(C)CC(C)C (centres undefined)', 6.25),
  ('Cc1nn(CCO)c2nc(N)nc(N)c12', 2.05);

Looking for the measured growth inhibition of CCCCCC1CCC(OC(=O)NC)CC1 (centres undefined) , can you help?
2

Looking for the measured growth inhibition of COC(=O)c1ccc(SCCC2(COS(C)(=O)=O)OCCO2)cc1 , can you help?
18.6

Looking for the measured growth inhibition of Nc1ccc(S(=O)(=O)NNc2nc(N3CCCCC3)nc(N3CCCCC3)n2)cc1 , can you help?
-1.3

Looking for the measured growth inhibition of CC(=O)C1C(=O)OC2C3C=CC(C3)C2C1=O (centres undefined) , can you help?
14.9

Looking for the measured growth inhibition of CCOC(=O)C#Cc1ccc(C#CC(=O)OCC)cc1 , can you help?
-0.5

Looking for the measured growth inhibition of COCC(=O)C(C(C)=O)C(c1ccc2c(c1)OCO2)C(C(C)=O)C(=O)COC (centres undefined) , can you help?
-40.5

Looking for the measured growth inhibition of CC(O)C(NC(=O)c1cnc2ccccc2n1)C(=O)O (centres undefined) , can you help?
-8.45

Looking for the measured growth inhibition of CC1CC(C)CN(S(=O)(=O)c2cc(Cl)c(Oc3ccc([N+](=O)[O-])cc3Cl)c(Cl)c2)C1 (centres undefined) , can you help?
7.8

Looking for the measured growth inhibition of CCOC(=O)C(=N\Nc1ccccc1Br)/C(C)=N\NC(N)=S , can you help?
50

----------
# test description: NCI Yeast Anticancer Drug Screen. Data for the mec2-1 strain (AID 157)
# condition parameters: S. cerevisiae mec2-1 strain, at 50.0 µM, active compounds read high
The panel holds about 79,000 compounds, 15% with a hit somewhere; the sample as a whole holds those more often.
readout label: growth inhibition (%)
Kindly answer with a numeric value in %, unit omitted.

Completed entries (count: 6):
INSERT INTO results (molecule, readout_label, reported_value) VALUES
  ('O=C(NC(=Nc1ccccc1)SCSC(=Nc1ccccc1)NC(=O)c1ccco1)c1ccco1', 'growth inhibition', -7.9),
  ('CC(C)C1=CC2=C(C(=O)C1=O)C13CCCC(C)(C)C1CC2OC3=O (centres undefined)', 'growth inhibition', -45.1),
  ('CN=C(N)NC', 'growth inhibition', 2.45),
  ('CC1(C)CC(Nc2ccccc2)=CC(=Nc2ccccc2)S1', 'growth inhibition', -11.2),
  ('COc1cc2c(cc1OC)C(c1ccc([N+](=O)[O-])c(C)c1)=NCC2', 'growth inhibition', -15.7),
  ('CCOC(=O)C(CO)C1CCCC1 (centres undefined)', 'growth inhibition', -2.65);

Looking for the measured growth inhibition of COC(=O)C1=C(C)NC(C)=C(C(=O)OC)C1c1ccc(NC(C)=O)cc1 , can you help?
-3.7

Looking for the measured growth inhibition of CCc1nc(N)nc(N)c1-c1ccc(N(CC)Cc2ccccc2)c([N+](=O)[O-])c1 , can you help?
-3.05

Looking for the measured growth inhibition of CC1(C)OC(=O)N=C1c1ccc(Br)cc1 , can you help?
-25.6

Looking for the measured growth inhibition of CCN1C(=O)c2ccccc2C1=O , can you help?
-9.85
